tested-target: LRRK2 (WT) (Homo sapiens (Human))
Sequence (Q5S007 whole entry): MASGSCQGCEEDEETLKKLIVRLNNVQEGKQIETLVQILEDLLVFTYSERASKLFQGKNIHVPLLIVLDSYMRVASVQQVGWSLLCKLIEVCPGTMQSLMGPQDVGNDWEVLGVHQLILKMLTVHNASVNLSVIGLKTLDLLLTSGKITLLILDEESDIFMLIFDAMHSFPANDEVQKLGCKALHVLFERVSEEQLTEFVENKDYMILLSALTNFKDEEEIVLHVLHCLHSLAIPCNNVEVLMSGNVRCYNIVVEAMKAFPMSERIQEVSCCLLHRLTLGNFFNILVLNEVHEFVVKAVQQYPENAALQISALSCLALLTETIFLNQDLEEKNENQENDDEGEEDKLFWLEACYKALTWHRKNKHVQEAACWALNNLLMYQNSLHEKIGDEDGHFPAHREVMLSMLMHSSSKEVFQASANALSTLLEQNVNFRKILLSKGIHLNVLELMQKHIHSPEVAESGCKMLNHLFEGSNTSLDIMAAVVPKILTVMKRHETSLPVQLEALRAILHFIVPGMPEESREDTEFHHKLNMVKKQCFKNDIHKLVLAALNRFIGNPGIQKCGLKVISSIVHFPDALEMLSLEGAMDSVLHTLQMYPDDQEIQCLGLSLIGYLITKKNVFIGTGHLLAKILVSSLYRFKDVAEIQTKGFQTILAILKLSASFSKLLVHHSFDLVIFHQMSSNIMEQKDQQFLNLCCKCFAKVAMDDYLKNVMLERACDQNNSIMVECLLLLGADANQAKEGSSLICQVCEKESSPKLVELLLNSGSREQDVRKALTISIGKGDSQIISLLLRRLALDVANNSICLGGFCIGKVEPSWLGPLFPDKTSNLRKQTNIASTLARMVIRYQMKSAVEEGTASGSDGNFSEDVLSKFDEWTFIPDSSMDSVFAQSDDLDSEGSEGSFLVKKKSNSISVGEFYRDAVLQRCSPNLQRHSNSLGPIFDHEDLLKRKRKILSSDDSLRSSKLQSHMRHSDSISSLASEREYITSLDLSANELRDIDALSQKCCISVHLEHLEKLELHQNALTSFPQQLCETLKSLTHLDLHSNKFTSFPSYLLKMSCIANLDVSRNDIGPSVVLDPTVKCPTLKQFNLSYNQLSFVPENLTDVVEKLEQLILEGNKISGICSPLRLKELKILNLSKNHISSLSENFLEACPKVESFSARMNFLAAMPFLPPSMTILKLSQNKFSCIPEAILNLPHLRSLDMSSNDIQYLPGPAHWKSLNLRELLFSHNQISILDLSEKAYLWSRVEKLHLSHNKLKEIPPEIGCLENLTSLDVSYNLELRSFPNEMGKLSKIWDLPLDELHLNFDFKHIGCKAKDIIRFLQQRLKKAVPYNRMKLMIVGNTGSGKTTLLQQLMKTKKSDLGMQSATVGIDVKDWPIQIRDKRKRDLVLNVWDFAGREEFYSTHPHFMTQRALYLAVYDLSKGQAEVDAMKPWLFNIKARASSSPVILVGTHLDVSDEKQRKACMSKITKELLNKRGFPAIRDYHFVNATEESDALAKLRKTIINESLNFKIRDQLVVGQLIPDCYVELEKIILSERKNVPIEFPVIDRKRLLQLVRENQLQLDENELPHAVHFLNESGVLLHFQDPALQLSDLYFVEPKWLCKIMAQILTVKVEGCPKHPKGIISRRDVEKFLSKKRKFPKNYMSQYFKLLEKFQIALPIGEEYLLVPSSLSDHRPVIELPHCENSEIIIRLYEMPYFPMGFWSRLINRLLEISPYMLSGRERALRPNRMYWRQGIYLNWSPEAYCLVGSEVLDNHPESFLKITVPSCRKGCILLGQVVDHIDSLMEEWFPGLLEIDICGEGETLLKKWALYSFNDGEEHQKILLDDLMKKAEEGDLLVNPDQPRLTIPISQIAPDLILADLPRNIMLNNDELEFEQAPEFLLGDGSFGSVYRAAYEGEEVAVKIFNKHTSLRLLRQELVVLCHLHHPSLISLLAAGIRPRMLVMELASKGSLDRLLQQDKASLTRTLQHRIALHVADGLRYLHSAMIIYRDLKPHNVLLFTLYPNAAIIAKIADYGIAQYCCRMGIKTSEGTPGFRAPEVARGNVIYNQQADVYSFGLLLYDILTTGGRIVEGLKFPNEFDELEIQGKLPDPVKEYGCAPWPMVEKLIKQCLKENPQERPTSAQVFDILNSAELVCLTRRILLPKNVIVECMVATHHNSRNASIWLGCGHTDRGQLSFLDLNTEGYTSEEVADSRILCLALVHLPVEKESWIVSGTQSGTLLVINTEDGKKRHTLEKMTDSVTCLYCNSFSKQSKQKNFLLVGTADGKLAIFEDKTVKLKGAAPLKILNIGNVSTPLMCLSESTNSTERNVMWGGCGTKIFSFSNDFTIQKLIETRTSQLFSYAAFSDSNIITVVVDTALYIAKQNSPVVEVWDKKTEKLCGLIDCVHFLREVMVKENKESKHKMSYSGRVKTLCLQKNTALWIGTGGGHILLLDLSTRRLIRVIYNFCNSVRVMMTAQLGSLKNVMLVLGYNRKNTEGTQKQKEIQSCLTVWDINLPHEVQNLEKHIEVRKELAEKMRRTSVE
pIC50: −log10 of the molar value.
Please respond with reported pIC50 for every item in the list.

Could you share which pIC50 value was measured for Cc1cc(F)cc(C)c1-c1ccc2nc(NC(=O)[C@@H]3C[C@@H]3F)cn2c1 [Example 38] ?
6.00 to 7.00

Report pIC50 for Cc1ccsc1-c1ccc2nc(NC(=O)[C@@H]3C[C@@H]3F)cn2c1 [Example 41] please.
7.00 to 8.00

Form field: reported pIC50 of Nc1ccc(-c2ccc3nc(NC(=O)[C@@H]4C[C@@H]4F)cn3c2)cn1 [Example 55]
6.00 to 7.00

Entry under review: N#Cc1c(F)cccc1-c1ccc2nc(NC(=O)[C@@H]3C[C@@H]3F)cn2c1 [Example 60] . Reported pIC50?
7.00 to 8.00

Which measured pIC50 value corresponds to Cc1cc(Cl)ccc1-c1ccc2nc(NC(=O)[C@@H]3C[C@@H]3F)cn2c1 [Example 29] ?
6.00 to 7.00

Recorded pIC50 of CNCc1c(F)cccc1-c1ccc2nc(NC(=O)[C@@H]3C[C@@H]3F)cn2c1 [Example 80] , please.
< 6.00

Looking for the measured pIC50 of Cc1cc(F)ccc1-c1ccc2nc(NC(=O)[C@@H]3C[C@@H]3F)cn2c1 [Example 39] , can you help?
6.00 to 7.00

Tell me the measured pIC50 of Cc1c(F)cncc1-c1ccc2nc(NC(=O)[C@@H]3C[C@@H]3F)cn2c1 [Example 14] , please.
6.00 to 7.00

====

Hi there, I'd appreciate the recorded IC50 for every entry that follows.
tested-target: LRRK2 G2019S (Homo sapiens (Human), UniProt Q5S007, G2019S)
Sequence (Q5S007 whole entry G2019S): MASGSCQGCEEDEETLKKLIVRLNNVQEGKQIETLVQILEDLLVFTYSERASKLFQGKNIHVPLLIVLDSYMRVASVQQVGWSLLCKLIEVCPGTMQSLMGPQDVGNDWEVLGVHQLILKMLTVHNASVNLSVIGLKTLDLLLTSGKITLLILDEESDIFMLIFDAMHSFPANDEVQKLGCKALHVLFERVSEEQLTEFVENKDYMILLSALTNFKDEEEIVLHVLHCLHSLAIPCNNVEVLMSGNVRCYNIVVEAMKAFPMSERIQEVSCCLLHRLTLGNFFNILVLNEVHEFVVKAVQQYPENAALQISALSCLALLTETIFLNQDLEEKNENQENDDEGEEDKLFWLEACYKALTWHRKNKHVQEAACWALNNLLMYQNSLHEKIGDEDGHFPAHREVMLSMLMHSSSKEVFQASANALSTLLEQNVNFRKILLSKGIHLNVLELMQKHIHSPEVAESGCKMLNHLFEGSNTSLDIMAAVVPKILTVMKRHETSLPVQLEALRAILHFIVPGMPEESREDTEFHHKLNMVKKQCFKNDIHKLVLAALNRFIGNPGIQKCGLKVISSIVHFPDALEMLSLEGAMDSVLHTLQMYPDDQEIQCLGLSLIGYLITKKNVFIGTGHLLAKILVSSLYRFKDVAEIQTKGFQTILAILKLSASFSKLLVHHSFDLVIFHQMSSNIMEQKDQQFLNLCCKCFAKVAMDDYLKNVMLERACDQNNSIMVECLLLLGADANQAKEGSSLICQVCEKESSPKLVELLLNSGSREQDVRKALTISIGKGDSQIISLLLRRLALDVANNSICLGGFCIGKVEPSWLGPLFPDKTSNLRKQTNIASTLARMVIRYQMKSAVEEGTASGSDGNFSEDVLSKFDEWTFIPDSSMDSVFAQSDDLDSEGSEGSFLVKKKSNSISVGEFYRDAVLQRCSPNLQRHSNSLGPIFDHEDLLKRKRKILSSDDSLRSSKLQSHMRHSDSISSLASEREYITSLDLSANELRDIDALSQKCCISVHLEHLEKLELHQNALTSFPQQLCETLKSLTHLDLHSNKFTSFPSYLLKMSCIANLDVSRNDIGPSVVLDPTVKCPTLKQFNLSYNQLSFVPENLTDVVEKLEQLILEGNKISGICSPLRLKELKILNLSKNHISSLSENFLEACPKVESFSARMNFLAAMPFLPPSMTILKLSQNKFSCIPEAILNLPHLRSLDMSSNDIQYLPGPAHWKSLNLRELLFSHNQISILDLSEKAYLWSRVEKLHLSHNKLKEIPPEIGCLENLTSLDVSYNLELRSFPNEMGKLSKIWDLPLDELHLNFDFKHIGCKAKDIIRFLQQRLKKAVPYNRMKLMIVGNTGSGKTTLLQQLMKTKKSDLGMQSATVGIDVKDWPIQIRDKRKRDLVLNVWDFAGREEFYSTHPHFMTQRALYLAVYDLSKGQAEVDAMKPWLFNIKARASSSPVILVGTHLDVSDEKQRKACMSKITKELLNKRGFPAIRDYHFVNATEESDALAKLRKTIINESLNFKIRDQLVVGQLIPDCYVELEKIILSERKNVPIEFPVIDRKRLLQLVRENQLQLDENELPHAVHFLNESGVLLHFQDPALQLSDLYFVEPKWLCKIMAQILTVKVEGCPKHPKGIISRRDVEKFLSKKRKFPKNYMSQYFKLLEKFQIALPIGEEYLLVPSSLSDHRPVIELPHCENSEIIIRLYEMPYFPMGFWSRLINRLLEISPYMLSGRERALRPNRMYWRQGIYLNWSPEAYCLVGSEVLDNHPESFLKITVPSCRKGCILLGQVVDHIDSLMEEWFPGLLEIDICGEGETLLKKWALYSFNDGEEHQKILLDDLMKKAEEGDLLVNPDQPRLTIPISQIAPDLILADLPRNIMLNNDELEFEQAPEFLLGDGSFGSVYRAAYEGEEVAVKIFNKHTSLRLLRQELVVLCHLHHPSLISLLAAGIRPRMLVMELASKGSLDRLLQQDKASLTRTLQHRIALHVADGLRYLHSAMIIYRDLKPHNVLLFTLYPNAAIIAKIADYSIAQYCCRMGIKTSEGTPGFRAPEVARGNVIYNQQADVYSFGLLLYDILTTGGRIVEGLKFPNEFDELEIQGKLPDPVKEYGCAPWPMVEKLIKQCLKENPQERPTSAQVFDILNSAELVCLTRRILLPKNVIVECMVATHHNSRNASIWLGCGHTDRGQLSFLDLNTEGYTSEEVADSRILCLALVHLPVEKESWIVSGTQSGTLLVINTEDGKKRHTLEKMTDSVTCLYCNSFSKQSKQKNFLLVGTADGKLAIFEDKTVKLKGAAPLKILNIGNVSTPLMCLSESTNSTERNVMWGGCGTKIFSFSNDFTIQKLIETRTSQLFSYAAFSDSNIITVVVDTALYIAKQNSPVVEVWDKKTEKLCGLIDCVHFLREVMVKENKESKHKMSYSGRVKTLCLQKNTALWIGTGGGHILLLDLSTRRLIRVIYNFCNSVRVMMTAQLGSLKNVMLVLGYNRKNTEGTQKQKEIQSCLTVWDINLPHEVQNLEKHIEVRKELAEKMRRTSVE
assay-explanation: LRRK2 G2019S Kinase Assay (Adapta)
test-parameters: 100 μM ATP, LRRKtide substrate; read-out: LRRK2_G2019S IC50

Find the recorded IC50 belonging to O=C(Nc1cn2cc(-c3cccc(F)c3COCCO)ccc2n1)[C@@H]1C[C@@H]1F [Example 83] and report it.
> 1000 nM

Using the record for Cc1c(F)cncc1-c1ccc2nc(NC(=O)[C@@H]3C[C@@H]3F)cn2c1 [Example 14] , report its IC50.
101 to 1000 nM

Recorded IC50 for O=C(Nc1cn2cc(-c3cnc4[nH]ccc4c3)ccc2n1)[C@@H]1C[C@@H]1F [Example 27] , please?
10 to 100 nM

Which value of IC50 has been reported for Cc1c(F)cncc1-c1ccc2nc(NC(=O)[C@@H]3C[C@@H]3F)c(C)n2c1 [Example 10] in the records?
> 1000 nM

Dear colleague, I am looking for the recorded IC50 of the following compound: COCc1c(F)cccc1-c1ccc2nc(NC(=O)[C@@H]3C[C@@H]3F)cn2c1 [Example 64]
101 to 1000 nM

Requested read-out: IC50. Entry: Cc1c[nH]nc1-c1ccc2nc(NC(=O)[C@@H]3C[C@@H]3F)cn2c1 [Example 19]
101 to 1000 nM

Which measured IC50 value corresponds to N#Cc1c(F)cccc1-c1ccc2nc(NC(=O)[C@@H]3C[C@@H]3F)cn2c1 [Example 60] ?
10 to 100 nM

Requested field: IC50. Item: NCc1c(F)cccc1-c1ccc2nc(NC(=O)[C@@H]3C[C@@H]3F)cn2c1 [Example 74]
> 1000 nM

Name the recorded IC50 for Cc1ccc(Cl)cc1-c1ccc2nc(NC(=O)[C@@H]3C[C@@H]3F)cn2c1 [Example 26] .
101 to 1000 nM

Which value of IC50 has been reported for Cc1cccc(C)c1-c1ccc2nc(NC(=O)[C@@H]3C[C@@H]3F)cn2c1 [Example 42] in the records?
101 to 1000 nM

Any idea what its IC50 is? The compound is Cc1ccc2[nH]cc(C)c2c1-c1ccc2nc(NC(=O)[C@@H]3C[C@@H]3F)cn2c1 [Example 63]
10 to 100 nM

Param item = Cc1ccc(F)cc1-c1ccc2nc(NC(=O)[C@@H]3C[C@@H]3F)cn2c1 [Example 11] ; retrieve measured IC50.
10 to 100 nM

What does the record list as IC50 for O=C(Nc1cn2cc(-c3cc[nH]n3)ccc2n1)[C@@H]1C[C@@H]1F [Example 18] ?
101 to 1000 nM

Reported IC50 for Cc1c(F)cc(N)cc1-c1ccc2nc(NC(=O)[C@@H]3C[C@@H]3F)cn2c1 [Example 50] : what is it?
10 to 100 nM

Reported IC50, compound Cc1cc(N)ncc1-c1ccc2nc(NC(=O)[C@@H]3C[C@@H]3F)cn2c1 [Example 49] : ____
> 1000 nM

I have this compound here, Cc1ccc(C)c(-c2ccc3nc(NC(=O)[C@@H]4C[C@@H]4F)cn3c2)c1 [Example 34] , and I need its recorded IC50.
101 to 1000 nM

Which IC50 value belongs to Cc1ccc2[nH]ccc2c1-c1ccc2nc(NC(=O)[C@@H]3C[C@@H]3F)cn2c1 [Example 15] ?
< 10 nM

Reported IC50, compound Cc1ccsc1-c1ccc2nc(NC(=O)[C@@H]3C[C@@H]3F)cn2c1 [Example 41] : ____
10 to 100 nM

Which measured IC50 value corresponds to O=C(Nc1cn2cc(-c3cccc(F)c3CO)ccc2n1)[C@@H]1C[C@@H]1F [Example 57] ?
> 1000 nM

Given the compound CN(C)Cc1c(F)cccc1-c1ccc2nc(NC(=O)[C@@H]3C[C@@H]3F)cn2c1 [Example 84] , what is its reported IC50?
> 1000 nM

Any idea what its IC50 is? The compound is Cc1c(F)cncc1-c1ccc2nc(NC(=O)[C@@H]3C[C@@H]3F)c(Cl)n2c1 [Example 16]
> 1000 nM

Tell me the measured IC50 of Cc1c(O)cccc1-c1ccc2nc(NC(=O)[C@@H]3C[C@@H]3F)cn2c1 [Example 20] , please.
10 to 100 nM

====

tested-target: LRRK2 G2019S (Homo sapiens (Human), UniProt Q5S007, G2019S)
assay-explanation: LRRK2 G2019S Kinase Assay (Adapta)
test-parameters: 100 μM ATP, LRRKtide substrate; read-out: LRRK2_G2019S IC50
pIC50: −log10 of the molar value.
property-label: pIC50

Could you share which pIC50 value was measured for Cc1ccc(O)cc1-c1ccc2nc(NC(=O)[C@@H]3C[C@@H]3F)cn2c1 ?
7.00 to 8.00

What value of pIC50 has been reported for the following compound? CC(=O)NCc1c(F)cccc1-c1ccc2nc(NC(=O)[C@@H]3C[C@@H]3F)cn2c1
< 6.00

Data request, read-out pIC50, for Cc1cccc(F)c1-c1ccc2nc(NC(=O)[C@@H]3C[C@@H]3F)c(C)n2c1
6.00 to 7.00

# query: pIC50 of entry Cc1c(F)ccc(F)c1-c1ccc2nc(NC(=O)[C@@H]3C[C@@H]3F)cn2c1
7.00 to 8.00

Record request: pIC50 value, item Cc1cccc(F)c1-c1ccc2nc(NC(=O)[C@@H]3C[C@@H]3F)c(Cl)n2c1
6.00 to 7.00

pIC50 for Cc1c(-c2ccc3nc(NC(=O)[C@@H]4C[C@@H]4F)cn3c2)ccc(Cl)c1F ?
6.00 to 7.00

// lookup pIC50 for Cc1c(F)cccc1-c1ccc2nc(NC(=O)[C@@H]3C[C@@H]3F)c(Cl)n2c1
6.00 to 7.00

Please give the measured pIC50 for this compound: O=C(Nc1cn2cc(-c3cccc(F)c3F)ccc2n1)[C@@H]1C[C@@H]1F
7.00 to 8.00

====

This section lists IC50 readings for LRRK2 (WT) (Homo sapiens (Human), UniProt Q5S007).

Quick one: IC50 of CN(C)Cc1c(F)cccc1-c1ccc2nc(NC(=O)[C@@H]3C[C@@H]3F)cn2c1 [Example 84] ?
> 1000 nM

IC50 for Cc1c(-c2ccc3nc(NC(=O)[C@@H]4C[C@@H]4F)cn3c2)ccc(F)c1F [Example 44] ?
101 to 1000 nM

Param item = COCc1c(F)cccc1-c1ccc2nc(NC(=O)[C@@H]3C[C@@H]3F)cn2c1 [Example 64] ; retrieve measured IC50.
> 1000 nM

Could you share which IC50 value was measured for Cc1ccc(-c2cc[nH]c2)cc1-c1ccc2nc(NC(=O)[C@@H]3C[C@@H]3F)cn2c1 [Example 40] ?
101 to 1000 nM

I'd like to know its IC50. The compound in question is Cc1ccc(N)cc1-c1ccc2nc(NC(=O)[C@@H]3C[C@@H]3F)cn2c1 [Example 23]
101 to 1000 nM

Data request, read-out IC50, for Cc1c[nH]nc1-c1ccc2nc(NC(=O)[C@@H]3C[C@@H]3F)cn2c1 [Example 19]
101 to 1000 nM

What IC50 value was documented for this compound, O=C(Nc1cn2cc(-c3cccc(F)c3CO)ccc2n1)[C@@H]1C[C@@H]1F [Example 57] ?
> 1000 nM

Reported IC50 for Cc1ccc2[nH]cc(C)c2c1-c1ccc2nc(NC(=O)[C@@H]3C[C@@H]3F)cn2c1 [Example 63] : what is it?
101 to 1000 nM

Sample Cc1cccc(F)c1-c1ccc2nc(NC(=O)[C@@H]3C[C@@H]3F)c(Cl)n2c1 [Example 4] — what was its IC50?
> 1000 nM

Given the compound Cc1cc(F)c(O)cc1-c1ccc2nc(NC(=O)[C@@H]3C[C@@H]3F)cn2c1 [Example 43] , what is its reported IC50?
101 to 1000 nM

So what does the record say about IC50 for Cc1ccc(Cl)cc1-c1ccc2nc(NC(=O)[C@@H]3C[C@@H]3F)cn2c1 [Example 26] ?
101 to 1000 nM

Item O=C(Nc1cn2cc(-c3cccc(F)c3F)ccc2n1)[C@@H]1C[C@@H]1F [Example 62] has what recorded IC50?
10 to 100 nM

Dear colleague, I am looking for the recorded IC50 of the following compound: Cc1ccc(C)c(-c2ccc3nc(NC(=O)[C@@H]4C[C@@H]4F)cn3c2)c1 [Example 34]
101 to 1000 nM

What value of IC50 has been recorded for this entry: Cc1cccc(C)c1-c1ccc2nc(NC(=O)[C@@H]3C[C@@H]3F)cn2c1 [Example 42]
101 to 1000 nM

May I ask what IC50 has been recorded for NCc1c(F)cccc1-c1ccc2nc(NC(=O)[C@@H]3C[C@@H]3F)cn2c1 [Example 74] ?
> 1000 nM

State the recorded IC50 for this entry: CSc1c(F)cccc1-c1ccc2nc(NC(=O)[C@@H]3C[C@@H]3F)cn2c1 [Example 66]
101 to 1000 nM

# IC50 lookup, item N#Cc1ccncc1-c1ccc2nc(NC(=O)[C@@H]3C[C@@H]3F)cn2c1 [Example 36]
> 1000 nM
